Just for reference, patent US10258634B2 is where these values come from.

Test: Plasma level of ciclesonide and C21-C21-desisobutyrylciclesonide (HPLC-MS/MS), 2nd ciclesonide study
Details: horse, plasma, inhaled, 1687.5 μg/horse, Ciclesonide concentration (plasma), ciclesonide 1687.5 μg (nozzle B) twice daily per inhalation; day 1; 30 min
Assay Endpoint: concentration at 30 min

Documented concentration at 30 min of CC(C)C(=O)OCC(=O)[C@@]12O[C@H](C3CCCCC3)O[C@@H]1C[C@H]1[C@@H]3CCC4=CC(=O)C=C[C@]4(C)[C@H]3[C@@H](O)C[C@@]12C [ciclesonide] : < 0.5 nM

---

Assay: Plasma level of ciclesonide and C21-C21-desisobutyrylciclesonide (HPLC-MS/MS), 2nd ciclesonide study
Details: horse, plasma, inhaled, 2700 μg/horse, Ciclesonide concentration (plasma), ciclesonide 2700 μg B (nozzle B) twice daily per inhalation; day 11; 30 min
Assay Endpoint: concentration at 30 min (nM)
Kindly provide the numeric value in nM only, without the unit symbol.

Documented concentration at 30 min of CC(C)C(=O)OCC(=O)[C@@]12O[C@H](C3CCCCC3)O[C@@H]1C[C@H]1[C@@H]3CCC4=CC(=O)C=C[C@]4(C)[C@H]3[C@@H](O)C[C@@]12C [ciclesonide] : 0.63
